Measured On: hTDO2 in human glioblastoma A172 cells (Homo sapiens (Human), UniProt P48775)
Sequence (P48775 whole entry): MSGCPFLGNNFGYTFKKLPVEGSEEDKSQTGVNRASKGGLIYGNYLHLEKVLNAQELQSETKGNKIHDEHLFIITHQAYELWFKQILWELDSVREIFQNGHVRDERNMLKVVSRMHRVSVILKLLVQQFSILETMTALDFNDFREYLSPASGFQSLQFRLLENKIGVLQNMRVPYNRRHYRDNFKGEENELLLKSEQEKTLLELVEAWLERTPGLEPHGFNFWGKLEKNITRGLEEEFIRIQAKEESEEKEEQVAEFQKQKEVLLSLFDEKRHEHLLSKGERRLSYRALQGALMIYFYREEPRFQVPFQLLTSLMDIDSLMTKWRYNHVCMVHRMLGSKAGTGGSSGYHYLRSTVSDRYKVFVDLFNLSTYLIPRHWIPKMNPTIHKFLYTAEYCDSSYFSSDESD
Assay Notes: Cellular assay for TDO2 activity determination in A172 cells
Format: cell-based
Setup Conditions: overnight incubation, kynurenine absorbance at 480 nm
Overview of reported pIC50 across a group of compounds:
Lab note — pIC50 values are minus log10 of concentrations in M.

Record NC(=O)CCCNS(=O)(=O)c1ccc(-c2c[nH]c3cc(F)ccc23)cc1 / hTDO2 in human glioblastoma A172 cells (Homo sapiens (Human), UniProt P48775), pIC50 recorded as 6.68

# value of pIC50, hTDO2 in human glioblastoma A172 cells (Homo sapiens (Human), UniProt P48775), item NCCNS(=O)(=O)c1cc(-c2c[nH]c3cc(F)ccc23)ccc1O = 5.54

hTDO2 in human glioblastoma A172 cells (Homo sapiens (Human), UniProt P48775) assay, compound CNC(=O)c1cc(-c2c[nH]c3cc(F)ccc23)ccc1S(=O)(=O)N1CCNCC1 , recorded pIC50 = 5.15

New cases:
Let me check: CC(C)CC(=O)n1cc(-c2ccc(S(=O)(=O)N3CCNCC3)cc2)c2ccc(F)cc21 , system hTDO2 in human glioblastoma A172 cells (Homo sapiens (Human), UniProt P48775), measured pIC50 is 5.77

* * *

List of pIC50 values.
Measured On: hTDO2 in human glioblastoma A172 cells (Homo sapiens (Human), UniProt P48775)
Assay Notes: Cellular assay for TDO2 activity determination in A172 cells
Setup Conditions: overnight incubation, kynurenine absorbance at 480 nm
Kindly note that pIC50 refers to -log10 of the concentration in mol/L and answer with the value alone.

For this molecule ( Cc1cc(-c2c[nH]c3cc(F)ccc23)cc(S(=O)(=O)NCCN)c1 [Example 30] ), measured pIC50 is 5.41

***
CN1C(=O)CN(S(=O)(=O)c2ccc(-c3c[nH]c4cc(F)ccc34)cc2)CC1=O [Example 145] yielded pIC50 of 5.44

* * *

Measured On: hTDO2 in human glioblastoma A172 cells (Homo sapiens (Human))
Assay Notes: Cellular assay for TDO2 activity determination in A172 cells
Setup Conditions: overnight incubation, kynurenine absorbance at 480 nm
# reported IC50; entries follow
Field note: include the unit after the figure.

Documented IC50 of COc1cc(-c2c[nH]c3cc(F)ccc23)cc(S(=O)(=O)NCCN)c1 [Example 61] : 4300 nM

// N[C@H]1CN(C(=O)CCNS(=O)(=O)c2ccc(-c3c[nH]c4cc(F)ccc34)cc2)C[C@H]1F (single isomer, unassigned) [Example 173] : IC50 value = 919 nM

According to the records, this molecule NC(=O)CCNS(=O)(=O)c1ccc(-c2c[nH]c3cc(F)ccc23)cc1C(F)(F)F [Example 168] displays IC50 of 270 nM

In plain terms, C[S+]([O-])CCNS(=O)(=O)c1ccc(-c2c[nH]c3cc(F)ccc23)cc1 (single isomer, unassigned; (-)) [Example 159] has a documented IC50 of 220 nM

Summary for this molecule, CS(=O)(=O)N1CCN(S(=O)(=O)c2ccc(-c3c[nH]c4cc(F)ccc34)cc2)CC1 [Example 19] : IC50 is 1000 nM

The molecule listed as CS(=O)(=O)c1cccc(-c2c[nH]c3cc(F)ccc23)c1 [Example 31] shows IC50 equal to 740 nM

IC50 reading for O=C(CCNS(=O)(=O)c1ccc(-c2c[nH]c3cc(F)ccc23)cc1)N1C[C@@H](O)[C@H](O)C1 [Example 170] : 1210 nM

Measured IC50 of CN(C)C(=O)CCNS(=O)(=O)c1ccc(-c2c[nH]c3cc(F)ccc23)cc1 [Example 49] : 210 nM

* * *

Measured On: hTDO2 in human glioblastoma A172 cells (Homo sapiens (Human))
Assay Notes: Cellular assay for TDO2 activity determination in A172 cells
Setup Conditions: overnight incubation, kynurenine absorbance at 480 nm
Endpoint Label: pIC50
Answer as the number alone; pIC50 is minus log10 of concentration in mol/L.

Lab note: measured pIC50 of N[C@@H]1CN(C(=O)CCNS(=O)(=O)c2ccc(-c3c[nH]c4cc(F)ccc34)cc2)C[C@H]1F was 6.42

According to the records, this molecule NS(=O)(=O)c1cc(Cl)c(-c2c[nH]c3cc(F)ccc23)c(Cl)c1 displays pIC50 of 5.12

Briefly, pIC50 measured for O=S(=O)(c1ccc(-c2c[nH]c3cc(F)ccc23)cc1)N1CCNCC1 : 6.89

Record O=S(=O)(c1ccc(-c2c[nH]c3cc(F)ccc23)cc1)N1CC[C@@H](O)C1 . Reported pIC50: 7.26

For this molecule ( O=C1CN(S(=O)(=O)c2ccc(-c3c[nH]c4cc(F)ccc34)cc2)CCN1CCO ), measured pIC50 is 6.36

Next:
GET /value?item= C[S+]([O-])CCNS(=O)(=O)c1ccc(-c2c[nH]c3cc(F)ccc23)cc1 (single isomer, unassigned; (+)) [Example 160] &field=pIC50 returns 6.77

Entry N[C@H]1CN(S(=O)(=O)c2ccc(-c3c[nH]c4cc(F)ccc34)cc2)C[C@H]1F (stereo in doubt) , pIC50 reported as 6.64

* * *

Measured On: hTDO2 in human glioblastoma A172 cells (Homo sapiens (Human), UniProt P48775)
Assay Notes: Cellular assay for TDO2 activity determination in A172 cells
Setup Conditions: overnight incubation, kynurenine absorbance at 480 nm
Endpoint Label: pIC50
// returns pIC50 (minus log10 of molar concentration), number only

Examples with answers:
get_value(item= O=S(=O)(c1ccc(-c2c[nH]c3cc(F)ccc23)cc1)N1C[C@@H](F)C[C@H]1CO , readout=pIC50) returns 6.86

Sure, the documented pIC50 for NC(=O)c1cc(-c2c[nH]c3cc(F)ccc23)ccc1S(=O)(=O)N1CCNCC1 is 6.00

pIC50 measured on O=S(=O)(N[C@@H]1CCOC1)c1ccc(-c2c[nH]c3cc(F)ccc23)cc1 = 6.68

Item: NCCNS(=O)(=O)c1cccc(-c2c[nH]c3cc(F)ccc23)c1 | pIC50: 6.62

Looking up Cc1cc(-c2c[nH]c3cc(F)ccc23)cc(C)c1S(=O)(=O)N1CCNCC1 , I see its pIC50 listed as 6.35

---
CS(=O)(=O)CCNS(=O)(=O)c1ccc(-c2c[nH]c3cc(F)ccc23)cc1 yielded pIC50 of 7.02

Short answer for O=C(CCNS(=O)(=O)c1ccc(-c2c[nH]c3cc(F)ccc23)cc1)N1CCOCC1 : pIC50 was 6.57

Entry O=S(=O)(c1ccc(-c2c[nH]c3cc(F)ccc23)cc1)N1CCC(O)(c2ccncn2)C1 (centres unmarked) , pIC50 reported as 6.91

* * *

Measured On: hTDO2 in human glioblastoma A172 cells (Homo sapiens (Human), UniProt P48775)
Assay Notes: Cellular assay for TDO2 activity determination in A172 cells
Setup Conditions: overnight incubation, kynurenine absorbance at 480 nm
Protocol: The compounds of formula I inhibit the activity of human TDO2 in cells that constitutively express TDO2, such as A172 cells. A172 is a cell line derived from human brain glioblastoma cells. […] The plates were then centrifuged 5 min at 1000 rpm, and 100 μL of the supernatant were collected in a conical plate, 30 μL of TCA 30% were added and a further centrifuged at 3000×g for 10 minutes. […] Kynurenine concentrations were determined by measuring the absorbance at 480 nm. […]
Endpoint Label: IC50 (nM)
Express your answer in nM, writing the number without its unit.

Some molecules with recorded IC50:
Given item O=S(=O)(NCc1ncon1)c1ccc(-c2c[nH]c3cc(F)ccc23)cc1 , the value recorded as its IC50 is 150

Input O=C(CCNS(=O)(=O)c1ccc(-c2c[nH]c3cc(F)ccc23)cc1)N[C@@H]1CCOC1 . Output IC50: 160

Form: molecule = Cc1cc(S(=O)(=O)N2CCNCC2)ccc1-c1c[nH]c2cc(F)ccc12 ; IC50 = 1400

Note to self: IC50 recorded for O=S(=O)(c1ccc(-c2c[nH]c3cc(F)ccc23)c(F)c1)N1CCNCC1 was 600

Memo: O=S(=O)(c1ccc(-c2c[nH]c3cc(F)ccc23)cc1)N1CCOC[C@@H]1CO , reported IC50: 116

The molecule listed as CCC(=O)n1cc(-c2ccc(S(=O)(=O)N3CCNCC3)cc2)c2ccc(F)cc21 shows IC50 equal to 630

Given item CNCCc1cc(-c2c[nH]c3cc(F)ccc23)ccc1S(N)(=O)=O , the value recorded as its IC50 is 541

Field IC50 (entry NS(=O)(=O)c1ccc(-c2c[nH]c3cc(F)ccc23)cc1CCO ) reads 120

Consider O=S(=O)(NC1CCOCC1)c1ccc(-c2c[nH]c3cc(F)ccc23)cc1 . Its measured IC50 is 220

// field: IC50; key: C[C@@H](O)[C@H](C)N(CCO)S(=O)(=O)c1ccc(-c2c[nH]c3cc(F)ccc23)cc1 ; value = 146

New cases:
// IC50 lookup, molecule = CN(CCCC(N)=O)S(=O)(=O)c1ccc(-c2c[nH]c3cc(F)ccc23)cc1 , result: 250

Looking up O=C(NCCNS(=O)(=O)c1ccc(-c2c[nH]c3cc(F)ccc23)cc1)N1CCNCC1 , I see its IC50 listed as 1000

// IC50 lookup, molecule = NC(=O)CCNS(=O)(=O)c1ccc(-c2c[nH]c3cc(F)ccc23)cc1 , result: 110

molecule CN(C)CCc1cc(-c2c[nH]c3cc(F)ccc23)ccc1S(N)(=O)=O , IC50 observed: 295
